Assay name: in vitro
Measurement parameters: mouse
IC50 at 5 days for assorted compounds

COC(=O)c1cccc(COc2c(-c3ccc(OCCOCCOCCn4cc(CCCCOc5ccc(-c6cc(=O)c7cc(C)ccc7o6)cc5)nn4)cc3)oc3ccccc3c2=O)c1 [Ac5Az9] ... > 100 µM
COC(=O)c1cccc(COc2c(-c3ccc(OCCOCCn4cc(CN(Cc5ccccc5)Cc5cn(CCOCCOc6ccc(-c7oc8ccccc8c(=O)c7OCc7cccc(C(=O)OC)c7)cc6)nn5)nn4)cc3)oc3ccccc3c2=O)c1 [Ac15Az8] ... > 100 µM

Q: Entry under review: Cc1ccc2oc(-c3ccc(OCCCCc4cn(CCOCCOCCOc5ccc(-c6oc7ccccc7c(=O)c6OCc6ccccc6)cc5)nn4)cc3)cc(=O)c2c1 [Ac5Az5] . Reported IC50 at 5 days?
Ans: > 100 µM

Q: Try this compound too: COC(=O)c1cccc(COc2c(-c3ccc(OCCOCCn4cc(CCCCOc5ccc6c(=O)cc(-c7ccccc7)oc6c5)nn4)cc3)oc3ccccc3c2=O)c1 [Ac12Az8]
Ans: > 100 µM

Q: Try this compound too: COC(=O)c1cccc(COc2c(-c3ccc(OCCOCCOCCN=[N+]=[N-])cc3)oc3ccccc3c2=O)c1 [Az9]
Ans: 20.6 µM

Q: Try this compound too: Cc1ccc2oc(-c3ccc(OCCCCc4cn(CCOCCOc5ccc(-c6oc7ccccc7c(=O)c6OCc6ccccc6)cc5)nn4)cc3)cc(=O)c2c1 [Ac5Az10]
Ans: > 100 µM

Q: Try this compound too: Cc1ccc2oc(-c3ccc(OCCCCc4cn(CCOCCOCCOc5ccc(-c6oc7ccccc7c(=O)c6O)cc5)nn4)cc3)cc(=O)c2c1 [Ac5Az5OH]
Ans: < 12.1 µM

====

Target of assay: BCRP (Homo sapiens, UniProt Q9UNQ0)
Sequence (Q9UNQ0 whole entry): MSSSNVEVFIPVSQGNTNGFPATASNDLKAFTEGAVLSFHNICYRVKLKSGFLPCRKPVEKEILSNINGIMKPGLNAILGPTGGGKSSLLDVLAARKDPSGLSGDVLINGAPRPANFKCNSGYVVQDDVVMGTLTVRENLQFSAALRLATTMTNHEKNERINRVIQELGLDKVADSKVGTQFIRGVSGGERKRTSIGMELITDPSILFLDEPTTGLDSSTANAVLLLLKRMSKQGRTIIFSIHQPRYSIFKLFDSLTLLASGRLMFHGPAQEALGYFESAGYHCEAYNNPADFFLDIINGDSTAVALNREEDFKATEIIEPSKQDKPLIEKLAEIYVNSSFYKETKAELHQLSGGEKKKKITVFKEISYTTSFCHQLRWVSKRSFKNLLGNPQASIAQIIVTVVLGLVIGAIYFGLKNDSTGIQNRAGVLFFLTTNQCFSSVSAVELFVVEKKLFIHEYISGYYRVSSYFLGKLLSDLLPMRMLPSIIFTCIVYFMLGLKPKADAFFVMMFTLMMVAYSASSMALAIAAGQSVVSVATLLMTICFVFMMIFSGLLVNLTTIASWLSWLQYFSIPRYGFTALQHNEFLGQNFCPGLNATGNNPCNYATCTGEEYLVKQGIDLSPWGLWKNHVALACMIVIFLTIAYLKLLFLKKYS
Assay name: Reversal of BCRP-mediated topotecan resistance in MCF7-MX100 cells (cell proliferation assay)
Measurement parameters: (IC50 towards L929 or Raw264.7)/(EC50 for reversing drug resistance)
Outcome measure: Topotecan resistance of MCF7-MX100 Therapeutic index

Q: Entry under review: COC(=O)c1cccc(COc2c(-c3ccc(OCCOCCOCCN=[N+]=[N-])cc3)oc3ccccc3c2=O)c1 . Reported Topotecan resistance of MCF7-MX100 Therapeutic index?
Ans: 2019.6

Q: Try this compound too: COC(=O)c1cccc(COc2c(-c3ccc(OCCOCCn4cc(CCCCOc5ccc(-c6cc(=O)c7cc(C)ccc7o6)cc5)nn4)cc3)oc3ccccc3c2=O)c1
Ans: >25000.0

Q: Try this compound too: COC(=O)c1cccc(COc2c(-c3ccc(OCCOCCn4cc(CN(Cc5ccccc5)Cc5cn(CCOCCOc6ccc(-c7oc8ccccc8c(=O)c7OCc7cccc(C(=O)OC)c7)cc6)nn5)nn4)cc3)oc3ccccc3c2=O)c1
Ans: >76923.1

====

Target of assay: BCRP (Homo sapiens, UniProt Q9UNQ0)
Assay name: Reversal of BCRP-mediated topotecan resistance in MCF7-MX100 cells (cell proliferation assay)
Measurement parameters: triazole dimers at 1.0 μM
Outcome measure: % of reversion of sensitivity of MCF7-MX100 towards topotecan

COC(=O)c1cccc(COc2c(-c3ccc(OCCOCCn4cc(CCCCOc5ccc(-c6cc(=O)c7cc(C)ccc7o6)cc5)nn4)cc3)oc3ccccc3c2=O)c1 ... about 64.0%
COC(=O)c1cccc(COc2c(-c3ccc(OCCOCCOCCn4cc(CCCCOc5ccc(-c6cc(=O)c7cc(C)ccc7o6)cc5)nn4)cc3)oc3ccccc3c2=O)c1 ... about 64.0%
COC(=O)c1cccc(COc2c(-c3ccc(OCCOCCOCCn4cc(CCCCOc5ccc6c(=O)cc(-c7ccccc7)oc6c5)nn4)cc3)oc3ccccc3c2=O)c1 ... about 80.0%
COC(=O)c1cccc(COc2c(-c3ccc(OCCOCCn4cc(COCCOc5ccc6c(=O)cc(-c7ccccc7)oc6c5)nn4)cc3)oc3ccccc3c2=O)c1 ... about 80.0%
O=c1cc(-c2ccc(OCCOCCn3cc(CN(CCOc4ccc5c(=O)cc(-c6ccccc6)oc5c4)Cc4ccccc4)nn3)cc2)oc2ccccc12 ... 80.0%
COC(=O)c1cccc(COc2c(-c3ccc(OCCOCCn4cc(CCCCOc5ccc6c(=O)cc(-c7ccccc7)oc6c5)nn4)cc3)oc3ccccc3c2=O)c1 ... about 80.0%
Cc1ccc2oc(-c3ccc(OCCCCc4cn(CCOCCOc5ccc(-c6oc7ccccc7c(=O)c6OCc6ccccc6)cc5)nn4)cc3)cc(=O)c2c1 ... about 80.0%

Q: Entry under review: COC(=O)c1cccc(COc2c(-c3ccc(OCCOCCOCCn4cc(COCCOc5ccc6c(=O)cc(-c7ccccc7)oc6c5)nn4)cc3)oc3ccccc3c2=O)c1 . Reported % of reversion of sensitivity of MCF7-MX100 towards topotecan?
Ans: about 80.0%

====

IC50 at 5 days for assorted molecules
Assay name: in vitro
Measurement parameters: mouse

A selection of reference data follows.
COC(=O)c1cccc(COc2c(-c3ccc(OCCOCCN=[N+]=[N-])cc3)oc3ccccc3c2=O)c1 ... 67.5 µM
Cc1ccc2oc(-c3ccc(OCCOCCOCCn4cc(CN(Cc5ccccc5)Cc5cn(CCOCCOCCOc6ccc(-c7cc(=O)c8cc(C)ccc8o7)cc6)nn5)nn4)cc3)cc(=O)c2c1 ... > 100 µM
O=c1cc(-c2ccccc2)oc2cc(OCCOCCOCCn3cc(CN(CCOc4ccc5c(=O)cc(-c6ccccc6)oc5c4)Cc4ccccc4)nn3)ccc12 ... > 100 µM
COCOc1cc(O)c2c(=O)cc(-c3ccc(OCCCc4cn(CCOCCOc5ccc(-c6cc(=O)c7ccccc7o6)cc5)nn4)cc3)oc2c1 ... > 100 µM
O=c1cc(-c2ccccc2)oc2cc(OCCCCc3cn(CCOCCOc4ccc(-c5oc6ccccc6c(=O)c5OCc5ccccc5)cc4)nn3)ccc12 ... > 100 µM

Let us move to another entry and its IC50 at 5 days.
Q: Entry under review: O=c1cc(-c2ccccc2)oc2cc(OCCCCc3cn(CCOCCOCCOc4ccc5c(=O)cc(-c6ccccc6)oc5c4)nn3)ccc12 . Reported IC50 at 5 days?
Ans: > 100 µM

====

IC50 at 5 days for assorted compounds
Assay name: in vitro
Measurement parameters: mouse

O=c1[nH]c(-c2ccc(OCCCc3cn(CCOCCOc4ccc(-c5cc(=O)c6ccccc6o5)cc4)nn3)cc2)nc2ccccc12 ... > 100 µM
Cc1ccc2oc(-c3ccc(OCCCCc4cn(CCOCCOc5ccc(-c6cc(=O)c7cc(F)ccc7o6)cc5)nn4)cc3)cc(=O)c2c1 ... > 100 µM
C#CCN(CCOc1ccc2c(=O)cc(-c3ccccc3)oc2c1)Cc1ccccc1 ... 58.2 µM

Q: Entry under review: Cc1ccc2oc(-c3ccc(OCCOCCOCCn4cc(CCCCOc5ccc6c(=O)cc(-c7ccccc7)oc6c5)nn4)cc3)cc(=O)c2c1 . Reported IC50 at 5 days?
Ans: > 50 µM

====

Assay name: Cytotoxicity assay (MTS) towards L929 normal fibroblasts
Measurement parameters: mouse, L929 fibroblasts
Outcome measure: IC50 at 5 days

Q: Entry under review: C/C=C/C[C@@H](C)C(=O)[C@H]1C(=O)N[C@@H](C(C)C)C(=O)N(C)CC(=O)N(C)[C@@H](CC(C)C)C(=O)N[C@@H](C(C)C)C(=O)N(C)[C@@H](CC(C)C)C(=O)N[C@@H](C)C(=O)N[C@H](C)C(=O)N(C)[C@@H](CC(C)C)C(=O)N(C)[C@@H](CC(C)C)C(=O)N(C)[C@@H](C(C)C)C(=O)N1C . Reported IC50 at 5 days?
Ans: > 100 µM

====

Target of assay: P-gp (Homo sapiens)
Sequence (P08183 whole entry): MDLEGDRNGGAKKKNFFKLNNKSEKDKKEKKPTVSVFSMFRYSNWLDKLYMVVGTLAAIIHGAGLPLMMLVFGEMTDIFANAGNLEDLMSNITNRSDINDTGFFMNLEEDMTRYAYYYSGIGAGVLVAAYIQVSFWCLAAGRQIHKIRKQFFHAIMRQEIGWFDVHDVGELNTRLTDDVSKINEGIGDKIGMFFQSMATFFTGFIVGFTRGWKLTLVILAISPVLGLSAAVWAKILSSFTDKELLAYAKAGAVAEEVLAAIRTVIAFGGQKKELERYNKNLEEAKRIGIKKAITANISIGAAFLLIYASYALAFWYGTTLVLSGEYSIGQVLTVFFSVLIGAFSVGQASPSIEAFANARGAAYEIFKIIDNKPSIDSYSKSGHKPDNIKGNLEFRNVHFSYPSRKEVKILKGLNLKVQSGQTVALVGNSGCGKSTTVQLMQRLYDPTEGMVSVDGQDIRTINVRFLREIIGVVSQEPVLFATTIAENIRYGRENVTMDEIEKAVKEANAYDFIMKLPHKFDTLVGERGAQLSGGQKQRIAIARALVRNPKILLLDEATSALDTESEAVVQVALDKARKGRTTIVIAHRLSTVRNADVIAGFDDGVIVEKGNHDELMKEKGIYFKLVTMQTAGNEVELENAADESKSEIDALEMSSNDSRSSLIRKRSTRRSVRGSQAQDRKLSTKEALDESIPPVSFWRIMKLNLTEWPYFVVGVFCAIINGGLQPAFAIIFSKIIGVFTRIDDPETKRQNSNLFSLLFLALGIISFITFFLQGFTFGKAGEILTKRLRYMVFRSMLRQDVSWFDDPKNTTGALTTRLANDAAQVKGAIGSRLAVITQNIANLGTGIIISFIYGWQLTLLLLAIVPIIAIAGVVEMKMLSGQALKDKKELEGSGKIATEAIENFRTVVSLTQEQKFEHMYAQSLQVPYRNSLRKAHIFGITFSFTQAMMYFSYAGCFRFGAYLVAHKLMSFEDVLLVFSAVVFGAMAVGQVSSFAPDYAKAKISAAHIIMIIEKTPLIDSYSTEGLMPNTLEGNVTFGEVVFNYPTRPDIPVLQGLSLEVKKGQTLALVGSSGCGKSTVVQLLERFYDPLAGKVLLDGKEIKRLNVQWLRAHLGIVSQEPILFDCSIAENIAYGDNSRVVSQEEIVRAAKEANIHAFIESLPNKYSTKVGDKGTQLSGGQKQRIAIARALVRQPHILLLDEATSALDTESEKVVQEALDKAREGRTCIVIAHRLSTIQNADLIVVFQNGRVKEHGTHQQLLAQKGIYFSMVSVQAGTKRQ
Assay name: cell-based
Outcome measure: pEC50
Interpret pEC50 as the negative base-10 log of the concentration measured in mol/L.

A selection of reference data follows.
O=c1cc(-c2ccccc2)oc2cc(OCCCCc3cn(CCOCCOc4ccc(-c5oc6ccccc6c(=O)c5OCc5ccccc5)cc4)nn3)ccc12 ... 6.48
Cc1ccc2oc(-c3ccc(OCCOCCOCCn4cc(CCCCOc5ccc6c(=O)cc(-c7ccccc7)oc6c5)nn4)cc3)cc(=O)c2c1 ... 6.72

Q: Entry under review: Cc1ccc2oc(-c3ccc(OCCCCc4cn(CCOCCOc5ccc6c(=O)cc(-c7ccccc7)oc6c5)nn4)cc3)cc(=O)c2c1 . Reported pEC50?
Ans: 6.80

====

IC50 at 5 days for assorted compounds
Assay name: in vitro
Measurement parameters: mouse

A selection of reference data follows.
O=c1cc(-c2ccc(OCCOCCn3cc(CN(CCOc4ccc5c(=O)cc(-c6ccccc6)oc5c4)Cc4ccccc4)nn3)cc2)oc2ccccc12 ... > 100 µM
O=c1cc(-c2ccc(OCCOCCOCCn3cc(CN(CCOc4ccc5c(=O)cc(-c6ccccc6)oc5c4)Cc4ccccc4)nn3)cc2)oc2ccccc12 ... > 100 µM
O=c1cc(-c2ccccc2)oc2cc(OCCN(Cc3ccccc3)Cc3cn(CCOCCOCCOc4ccc(-c5oc6ccccc6c(=O)c5OCc5ccccc5)cc4)nn3)ccc12 ... > 100 µM
Cc1ccc2oc(-c3ccc(OCCCCc4cn(CCOCCOCCOc5ccc(-c6cc(=O)c7cc(F)ccc7o6)cc5)nn4)cc3)cc(=O)c2c1 ... > 100 µM

Q: Entry under review: COC(=O)c1cccc(COc2c(-c3ccc(OCCOCCOCCn4cc(CCCCOc5ccc6c(=O)cc(-c7ccccc7)oc6c5)nn4)cc3)oc3ccccc3c2=O)c1 . Reported IC50 at 5 days?
Ans: > 100 µM

Q: Try this compound too: O=c1cc(-c2ccc(OCCOCCOCCn3cc(COCCOc4ccc5c(=O)cc(-c6ccccc6)oc5c4)nn3)cc2)oc2ccccc12
Ans: < 12.1 µM

Q: Try this compound too: O=c1cc(-c2ccccc2)oc2cc(OCCCCc3cn(CCOCCOCCOc4ccc(-c5cc(=O)c6cc(F)ccc6o5)cc4)nn3)ccc12
Ans: > 100 µM

Q: Try this compound too: O=c1cc(-c2ccc(OCCOCCn3cc(CCCCOc4ccc5c(=O)cc(-c6ccccc6)oc5c4)nn3)cc2)oc2ccccc12
Ans: > 100 µM

Q: Try this compound too: O=c1cc(-c2ccc(OCCOCCn3cc(CCCOc4ccc5c(=O)cc(-c6ccccc6)oc5c4)nn3)cc2)oc2ccccc12
Ans: > 100 µM

Q: Try this compound too: COC(=O)c1cccc(COc2c(-c3ccc(OCCOCCn4cc(COCCOc5ccc6c(=O)cc(-c7ccccc7)oc6c5)nn4)cc3)oc3ccccc3c2=O)c1
Ans: > 100 µM

Q: Try this compound too: O=c1cc(-c2ccccc2)oc2cc(OCCN(Cc3ccccc3)Cc3cn(CCOc4ccc5c(=O)cc(-c6ccccc6)oc5c4)nn3)ccc12
Ans: > 100 µM

Q: Try this compound too: O=c1cc(-c2ccc(OCCOCCn3cc(CCCOc4ccc(-c5cc(=O)c6ccc(F)cc6o5)cc4)nn3)cc2)oc2ccccc12
Ans: > 100 µM

Q: Try this compound too: O=c1cc(-c2ccccc2)oc2cc(OCCOCCOCCn3cc(COCCOc4ccc5c(=O)cc(-c6ccccc6)oc5c4)nn3)ccc12
Ans: < 12.1 µM
